Known kon of a selection of binders
Biological target: recombinant human GITR (Cat No. 13643-H08H, Lot No. LC12JA2509, Sino Biological) (human) (UniProt Q9Y5U5)
Assay: SPR Biacore 8K, multi-cycle kinetics, purified IgG captured on Protein A, GITR as analyte
Quick reminder: number only, in M⁻¹ s⁻¹, skip the unit.

[
  {
    "binder": "anti-GITR 51B VH0/VL0 chimeric antibody (human IgG1, kappa) (antibody, V domains shown, Chimeric antibody; also called VH0/Vk0; 51B VH0/Vk0) VH: QVQLQQSGAELMKPGASVKLSCKTTGYRFTGYWIEWVKQRPGHGLEWIGEILPGSGATYYSENFKGKATFTADTSSNTAYMQVSSLTTGDSAIYYCARKGGYYAMDYWGQGTSVTVSS VL: QIVLTQSPAIMSASLGERVTMTCTASSSVSSSYFHWYQQKPGSSPKLWIYSTSNLASGVPARFSGSGSGTSYSLTVSSLEAEDAATYYCHLYHRSPRTFGGGTTLDIKR",
    "scale_unit": "M⁻¹ s⁻¹",
    "kon": 552000
  },
  {
    "binder": "anti-GITR 51B VH3/VL1 humanized antibody (human IgG1, kappa) (antibody, V domains shown) VH: QVQLVQSGAEVKKPGASVKVSCKTTGYRFTGYWIEWVRQPPGKGLEWIGEILPGSGATYYSENFKGKVTITADTSTDTAYMELSSLRSEDTAIYYCARKGGYYAMDYWGQGTLVTVSS VL: QIVLTQSPAIMSASLGERVTMSCTASSSVSSSYFHWYQQKPGSAPKLWIYSTSNLASGVPDRFSGSGSGTDYTLTVSSLQAEDVATYYCHLYHRSPRTFGGGTTVDIKR",
    "scale_unit": "M⁻¹ s⁻¹",
    "kon": 796000
  }
]

kon in this record for anti-GITR 51B VH3/VL5 humanized antibody (human IgG1, kappa) (antibody, V domains shown) VH: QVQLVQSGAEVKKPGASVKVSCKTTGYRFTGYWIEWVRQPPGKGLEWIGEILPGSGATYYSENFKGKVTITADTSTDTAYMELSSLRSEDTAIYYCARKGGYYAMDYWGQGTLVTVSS VL: EIVLTQSPATLSLSPGERATLSCTASSSVSSSYFHWYQQKPGKAPKLWIYSTSNLESGVPDRFSGSGSGTDYTLTISSLQAEDVATYYCHLYHRSPRTFGGGTKVEIKR : 586000

kon in this record for anti-GITR 51B VH3/VL4 humanized antibody (human IgG1, kappa) (antibody, V domains shown, also called VH3/Vk4; 51B VH3/Vk4) VH: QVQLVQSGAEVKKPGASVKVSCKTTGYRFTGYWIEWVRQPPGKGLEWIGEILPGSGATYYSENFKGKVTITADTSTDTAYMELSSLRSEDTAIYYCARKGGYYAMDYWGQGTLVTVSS VL: EIVLTQSPATLSLSPGERATLSCTASSSVSSSYFHWYQQKPGKAPKLWIYSTSNLQSGVPDRFSGSGSGTDYTLTISSLQAEDVATYYCHLYHRSPRTFGGGTKVEIKR : 636000
